- STUDY_SYSTEM: Bone morphogenetic protein 1 (Homo sapiens)
- Sequence (P13497 whole entry): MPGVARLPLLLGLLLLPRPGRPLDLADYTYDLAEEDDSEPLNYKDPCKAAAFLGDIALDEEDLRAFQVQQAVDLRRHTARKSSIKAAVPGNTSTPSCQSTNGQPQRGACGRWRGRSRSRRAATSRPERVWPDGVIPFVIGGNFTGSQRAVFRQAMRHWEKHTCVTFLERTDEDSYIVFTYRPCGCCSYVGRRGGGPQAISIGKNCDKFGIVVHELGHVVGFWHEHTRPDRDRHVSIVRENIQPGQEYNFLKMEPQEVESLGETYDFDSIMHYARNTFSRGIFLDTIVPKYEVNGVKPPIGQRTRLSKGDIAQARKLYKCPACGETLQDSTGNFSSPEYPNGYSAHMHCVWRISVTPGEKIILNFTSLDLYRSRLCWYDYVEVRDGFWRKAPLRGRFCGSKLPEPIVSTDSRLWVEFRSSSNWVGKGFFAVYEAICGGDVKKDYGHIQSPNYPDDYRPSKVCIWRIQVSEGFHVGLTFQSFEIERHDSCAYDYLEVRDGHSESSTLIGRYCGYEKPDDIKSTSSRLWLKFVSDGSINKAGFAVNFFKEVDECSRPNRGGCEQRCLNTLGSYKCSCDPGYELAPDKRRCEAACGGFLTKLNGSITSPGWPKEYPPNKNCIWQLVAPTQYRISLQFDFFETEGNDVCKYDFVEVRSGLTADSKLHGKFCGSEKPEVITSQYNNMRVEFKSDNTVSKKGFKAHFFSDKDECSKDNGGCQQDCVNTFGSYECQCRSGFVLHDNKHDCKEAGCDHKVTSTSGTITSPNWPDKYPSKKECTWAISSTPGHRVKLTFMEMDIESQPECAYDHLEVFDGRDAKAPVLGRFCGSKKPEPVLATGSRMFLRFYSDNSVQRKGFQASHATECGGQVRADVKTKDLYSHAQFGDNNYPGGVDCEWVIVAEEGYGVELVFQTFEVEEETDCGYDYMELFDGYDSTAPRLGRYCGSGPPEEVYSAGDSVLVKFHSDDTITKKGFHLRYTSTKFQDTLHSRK
- ASSAY_SUMMARY: Inhibition of C-terminal FLAG-6x-His epitope tagged and N-terminal human RAGE signal sequence tagged human BMP1 (23 to 721 amino acids) expressed in CHO-E1A cells pre-incubated for 10 mins before promyostatin peptide substrate addition and measured after 30 mins using 50 nM BMP1 by FRET based assay
- Assay type: cell-based
pIC50: −log10 of the molar value.
The following molecules are shown together with reported pIC50 values.

>>> recorded_value("COc1cccc(-c2cccc(C(=O)NCNC(=O)[C@H](CC3CCCC3)CN(O)C=O)c2)c1")
"> 6.60"
>>> recorded_value("CCCCC[C@@H](C(=O)NCNC(=O)c1cccc(-c2ccc(C(=O)O)cc2C)n1)[C@@H](CC)N(O)C=O")
"> 6.60"

Reading of pIC50 for `CCCCC[C@@H](C(=O)NCNC(=O)c1cccc(-c2cc(OCC)cc(C(=O)O)c2)n1)[C@@H](CC)N(O)C=O` with Bone morphogenetic protein 1 (Homo sapiens): > 6.60

Response field pIC50 (Bone morphogenetic protein 1 (Homo sapiens)) for item `CCCCC[C@H](CN(O)C=O)C(=O)NCNC(=O)c1cccc(-c2cccc(S(C)(=O)=O)c2)c1` : > 6.60

Given the molecule `CCCCC[C@H](CN(O)C=O)C(=O)NCNC(=O)c1cccc(-c2cccnc2)n1` and test system Bone morphogenetic protein 1 (Homo sapiens), the measured pIC50 is > 6.60

Let me check: `CCCCC[C@@H](C(=O)NCNC(=O)c1cccc(-c2ccc(C(=O)N(CC(=O)O)CC(=O)O)c(OCC)c2)n1)[C@@H](CC)N(O)C=O` , system Bone morphogenetic protein 1 (Homo sapiens), measured pIC50 is > 6.60

The observed pIC50 for `CCCCC[C@H](CN(O)C=O)C(=O)NCNC(=O)c1cccc(-c2ccnc(OC)n2)c1` when tested with Bone morphogenetic protein 1 (Homo sapiens) stands at > 6.60

Assay Bone morphogenetic protein 1 (Homo sapiens), sample `CCCCC[C@H](CN(O)C=O)C(=O)NCNC(=O)c1cccc(-n2cc(C)cn2)c1` , pIC50 read: > 6.60

Bone morphogenetic protein 1 (Homo sapiens) data for `O=CN(O)C[C@@H](CC1CCCC1)C(=O)NCNC(=O)c1cccc(-c2ccccc2)c1` ; its pIC50: > 6.60
